B1: NETO1 (parent)
chain: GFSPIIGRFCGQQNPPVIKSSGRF

# Variants of: B1
# Procedure Details: protein stability index of a GFP-peptide fusion (GPS, HEK-293T) (PSI 1-6); higher = more stable;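 further: lentivirally expressed fusions sorted by FACS into six bins by GFP to DsRed ratio, PSI derived from sequencing read proportions per bin multiplied by bin number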
# Test Settings: c terminus: a fixed tail appended
Quick rule: protein stability index of at least 2 means met, below that means not met.

GFSPIIGRFCGQWNPPVIKSSGRF	not met
GFSPIIGRFCGQFNPPVIKSSGRF	not met
GLSPIIGRFCGQQNPPVIKSSGRF	met
GFSPIIGRFCGQQNPPVIISSGRF	met
GFSPIIGRFCGQQNPPVIKSSDRF	met
GFSPIIGRFCGQQNPRVIKSSGRF	met
GFSPIIGLFCGQQNPPVIKSSGRF	not met
GFSPIIGRFCGQQNSPVIKSSGRF	not met
GFSPIIGRFCGQQNPPVEKSSGRF	met
GFSPIIGRFCGQQNPPVIKSYGRF	met
GFSPIQGRFCGQQNPPVIKSSGRF	met
GFSPIIGRFCGQQNPPVIKSSGLF	met
GFSPIIGRFCGQQNPPVIKSSRRF	met
GFSPIKGRFCGQQNPPVIKSSGRF	met
GFSPIIGRFCGQQNPPVIKSIGRF	not met
GFSPIIGRFCGQQNPPVIKSSGRC	met
GFSPIIGRFCGQMNPPVIKSSGRF	met
GFSPIIGRFCGRQNPPVIKSSGRF	not met
GFSPIIGRFCVQQNPPVIKSSGRF	met
GFSPIIGRFCGQQNPPVIKSSKRF	met
GFSPIIGRFCGQQNPPVILSSGRF	met
GFSPIIGRFCGQQNAPVIKSSGRF	met
GFSPIIGRFCGQQNPPVIKSSHRF	not met
GFSPIIGRFCGQQNPPVIKSTGRF	met
GFSPIIGRFCGNQNPPVIKSSGRF	met
GFSPIIGRFGGQQNPPVIKSSGRF	met
GFSPIIGRFCGQQNPPVICSSGRF	not met
GFSPHIGRFCGQQNPPVIKSSGRF	met
GFSPIIGRACGQQNPPVIKSSGRF	met
GFSRIIGRFCGQQNPPVIKSSGRF	not met
GFSPIIGRECGQQNPPVIKSSGRF	met
GFSPIIGRKCGQQNPPVIKSSGRF	met
GFSPIIGRFCGQQNPDVIKSSGRF	met
PFSPIIGRFCGQQNPPVIKSSGRF	met
EFSPIIGRFCGQQNPPVIKSSGRF	not met
GFSPIIGRFCGQQNPPVIKSSGRE	met
GFSPISGRFCGQQNPPVIKSSGRF	met
GNSPIIGRFCGQQNPPVIKSSGRF	met
GQSPIIGRFCGQQNPPVIKSSGRF	met
GFSPIIGRFCGQQNPPVIKSSGTF	not met
GFSPIITRFCGQQNPPVIKSSGRF	met
GFSPINGRFCGQQNPPVIKSSGRF	met
GFSPIYGRFCGQQNPPVIKSSGRF	not met
GFSPIIGRFCGAQNPPVIKSSGRF	not met
GFSPIIGRFCGQQNPPVIKSSMRF	not met
GFYPIIGRFCGQQNPPVIKSSGRF	not met
GFSPIIGRFCGQQNPPVIQSSGRF	not met
GFSPIIGRFCGQQNPPVITSSGRF	not met
GFSPIIGRFCGQQNPPVCKSSGRF	met
GFSPIIGRFCGQQNPPVPKSSGRF	met
GFSPIDGRFCGQQNPPVIKSSGRF	met
GSSPIIGRFCGQQNPPVIKSSGRF	met
GFSPIIGRFCGQPNPPVIKSSGRF	met
GFWPIIGRFCGQQNPPVIKSSGRF	not met
